test system: UACC-257 melanoma; assay: NCI-60 one-dose screen, 48 h (100 = growth as untreated, 0 = no growth, -100 = all killed); settings: 10 µM unless noted
Compounds without any hit were thinned out: in the full panel of roughly 83,000, 20% have a hit.

| COMPOUND | UNIT_SYMBOL | growth |
| --- | --- | --- |
| Cc1cccc(N2CCN(C3=C(Cl)C(=O)c4ncccc4C3=O)CC2)c1 | % | 61.5 |
| Cc1cc2nc(C(Cl)Cl)nc(-c3ccc(S(=O)(=O)N(C)C)cc3)n2n1 | % | 87 |
| O=C1[C@@H]2Cc3c([nH]c4ccccc34)[C@H](c3ccc(Br)cc3)N2C(=O)CN1C1CCN(Cc2c(Cl)cccc2Cl)CC1 | % | 102 |
| Cn1ncc2ncc(-c3ccc4ncc(C#N)c(N5CCc6cc(F)c(Cl)cc65)c4c3)cc21 | % | 54.9 |
| C(=N\Nc1nc(N/N=C/c2ccc3c(c2)OCO3)nc(N2CCCCC2)n1)/c1ccc2c(c1)OCO2 | % | 108 |
| CCCCSC1=C(Cl)CN(c2ccccc2)C1=O | % | 101 |
| CC(Nc1c(C#N)cnc2ccc(-c3cncc(O)c3)cc12)c1ccccc1 (stereo not given) | % | 18.2 |
| CCc1cc(O)ccc1Nc1cc(-c2ccc(-n3cccn3)cc2)[nH]n1 | % | 70 |
| Clc1cccc(/C=N/Nc2nc(N/N=C/c3cccc(Cl)c3)nc(N3CCCCC3)n2)c1 | % | 111 |
| COc1ccccc1Cn1cc(C#N)c(N)c1C(=O)c1ccc(Br)cc1 | % | 100 |
| Cc1ccc(C)c(NC2=C(Cl)C(=O)c3nc(C)ccc3C2=O)c1 | % | -87.7 |
| NC1C2CCC1CN(c1cnc(C(=O)Nc3cc(F)cc4cccnc34)cn1)C2 (stereo not given) | % | 98.3 |
| CCOC(=O)c1cnc2c(-c3ccc(Cl)c(Cl)c3)cnn2c1 | % | 81.9 |
| O=S(=O)(Oc1ccc(-c2cn3ccoc3n2)cc1)c1cccc(C(F)(F)F)c1 | % | 101 |
| COc1cc2cc(Oc3ccc(NC(=O)c4cc(C(F)(F)F)cc(C(F)(F)F)c4)cc3)c(C)nc2cc1OCCN1CCOCC1 | % | 57.3 |
| CN(C)S(=O)(=O)c1ccc(-c2nc(C(Cl)Cl)nc3cc(-c4ccccc4)nn23)cc1 | % | 105 |
| C#CCOc1ccccc1C(OC(=O)c1ccccc1)C(=O)NC(C)(C)C(C)(C)C (stereo not given) | % | 81.6 |
| CCOP(=O)(OCC)OC[C@]12CC[C@@H](C)[C@H](C)C1C1=CC[C@@H]3[C@@]4(C)CCCNC(C)(C)[C@@H]4CC[C@@]3(C)[C@]1(C)CC2 (stereo not given in full) | % | 13.4 |
| C[C@@H]1OCC2(CCN(c3cnc(C(=O)Nc4cc(F)cc5cccnc45)cn3)CC2)[C@@H]1N | % | 102 |
| CC1=C(C)C(=O)C(Nc2cccc(C(F)(F)F)c2)=C(Br)C1=O | % | 88.1 |
